tested-target: Neuronal acetylcholine receptor; alpha4/beta2 (Rattus norvegicus, UniProt P09483+P12390)
Sequence (P09483 whole entry): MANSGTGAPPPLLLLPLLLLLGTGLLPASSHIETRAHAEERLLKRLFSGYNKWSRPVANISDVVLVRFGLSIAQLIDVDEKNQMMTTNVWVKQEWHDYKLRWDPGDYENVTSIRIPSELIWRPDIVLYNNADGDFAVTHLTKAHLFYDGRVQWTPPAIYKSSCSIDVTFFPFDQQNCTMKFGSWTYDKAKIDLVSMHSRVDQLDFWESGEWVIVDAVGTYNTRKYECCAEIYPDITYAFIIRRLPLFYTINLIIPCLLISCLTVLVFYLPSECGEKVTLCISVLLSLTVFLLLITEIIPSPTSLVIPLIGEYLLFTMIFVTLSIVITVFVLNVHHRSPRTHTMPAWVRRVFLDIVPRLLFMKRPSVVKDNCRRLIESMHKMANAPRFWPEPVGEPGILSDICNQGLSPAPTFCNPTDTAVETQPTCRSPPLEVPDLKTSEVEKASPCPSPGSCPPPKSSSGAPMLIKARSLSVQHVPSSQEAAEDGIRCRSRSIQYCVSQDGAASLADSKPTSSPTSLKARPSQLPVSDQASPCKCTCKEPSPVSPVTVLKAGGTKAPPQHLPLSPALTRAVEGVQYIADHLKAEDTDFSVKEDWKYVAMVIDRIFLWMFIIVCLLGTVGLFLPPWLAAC
Sequence (P12390 whole entry): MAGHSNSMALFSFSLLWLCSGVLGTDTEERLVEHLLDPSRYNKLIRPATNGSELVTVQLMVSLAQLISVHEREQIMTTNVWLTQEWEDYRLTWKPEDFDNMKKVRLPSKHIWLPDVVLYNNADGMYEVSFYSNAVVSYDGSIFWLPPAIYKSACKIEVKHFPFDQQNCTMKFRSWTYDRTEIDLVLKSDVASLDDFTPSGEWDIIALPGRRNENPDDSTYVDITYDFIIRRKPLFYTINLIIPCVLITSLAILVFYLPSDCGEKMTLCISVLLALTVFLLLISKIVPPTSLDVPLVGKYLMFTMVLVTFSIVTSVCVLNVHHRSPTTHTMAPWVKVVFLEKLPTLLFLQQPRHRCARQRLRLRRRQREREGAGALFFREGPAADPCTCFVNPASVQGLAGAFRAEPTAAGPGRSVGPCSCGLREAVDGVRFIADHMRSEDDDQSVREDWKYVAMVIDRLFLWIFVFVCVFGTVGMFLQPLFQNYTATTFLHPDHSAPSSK
method-summary: Displacement of [3H]cytisine from nAChR alpha4beta2 in rat brain membrane
Type: cell membranes
conditions-used: read-out: Ki
Hi! Just check whether Ki is below 3 nM. Below gives yes, equal or above gives no.

[[record]]
chemical_structure = "COc1cc(NC(=O)c2cncc(N3C[C@H]4CNC[C@H]4C3)c2)cc(OC)c1"
label_value = "yes"

[[record]]
chemical_structure = "CC(C)c1cccc(NC(=O)c2cncc(N3C[C@H]4CNC[C@H]4C3)n2)c1"
label_value = "no"

[[record]]
chemical_structure = "O=C(NCc1ccccc1)c1cncc(N2C[C@H]3CNC[C@H]3C2)n1"
label_value = "no"

[[record]]
chemical_structure = "Cc1ccccc1CNC(=O)c1cncc(N2C[C@H]3CNC[C@H]3C2)c1"
label_value = "yes"

[[record]]
chemical_structure = "O=C(NCCc1ccccc1)c1cncc(N2C[C@H]3CNC[C@H]3C2)n1"
label_value = "no"

[[record]]
chemical_structure = "CC(C)Oc1cccc(NC(=O)c2cncc(N3C[C@H]4CNC[C@H]4C3)c2)c1"
label_value = "yes"

[[record]]
chemical_structure = "Cc1cccc(NC(=O)c2cncc(N3C[C@H]4CNC[C@H]4C3)c2)c1"
label_value = "yes"

[[record]]
chemical_structure = "Cc1ccccc1CNC(=O)c1cncc(N2C[C@H]3CNC[C@H]3C2)n1"
label_value = "yes"


Now look at this entry.
State whether 3 nM exceeds Ki recorded for c1cncc(N2C[C@H]3CCN[C@H]3C2)c1 .
yes

* * *

method-summary: Ratio drug uptake in brain to plasma of rat at 2 umol/kg, ip measured after 0.75 hrs
Type: ADME, organism-based
conditions-used: read-out: BPR
Each entry below carries its reported Kp at 0.75 h.

[[record]]
chemical_structure = "O=C(NCc1ccccc1)c1cncc(N2C[C@H]3CNC[C@H]3C2)n1"
value_observed = 0.04

[[record]]
chemical_structure = "C[C@@H](NC(=O)c1cncc(N2C[C@H]3CNC[C@H]3C2)c1)c1ccccc1"
value_observed = 0.15

[[record]]
chemical_structure = "Cc1ccccc1CNC(=O)c1cncc(N2C[C@H]3CNC[C@H]3C2)n1"
value_observed = 0.04

[[record]]
chemical_structure = "O=C(NCc1ccccc1C(F)(F)F)c1cncc(N2C[C@H]3CNC[C@H]3C2)c1"
value_observed = 0.04

[[record]]
chemical_structure = "CN(Cc1ccccc1)C(=O)c1cncc(N2C[C@H]3CNC[C@H]3C2)c1"
value_observed = 0.07

[[record]]
chemical_structure = "Cc1cccc(NC(=O)c2cncc(N3C[C@H]4CNC[C@H]4C3)c2)c1"
value_observed = 0.12

[[record]]
chemical_structure = "Cc1ccccc1CNC(=O)c1cncc(N2C[C@H]3CNC[C@H]3C2)c1"
value_observed = 0.02

[[record]]
chemical_structure = "COc1cc(NC(=O)c2cncc(N3C[C@H]4CNC[C@H]4C3)c2)cc(OC)c1"
value_observed = 0.07


May I ask what Kp at 0.75 h has been recorded for c1ccc(COc2cncc(N3C[C@H]4CNC[C@H]4C3)n2)cc1 ?
3.27

* * *

method-summary: Half life in rat at 2 umol/kg, po measured after 8 hrs
Assay type: ADME, organism-based
conditions-used: in vivo
readout-kind: half-life

May I ask what half-life has been recorded for Cc1ccccc1CNC(=O)c1cncc(N2C[C@H]3CNC[C@H]3C2)n1 ?
2.1 h

* * *

method-summary: Drug uptake in rat plasma at 2 umol/kg, ip measured after 0.75 hrs
Assay type: ADME, organism-based
concentration at 0.75 h class ranges: bucket 1 = under 70 ng/mL, bucket 2 = from 70 ng/mL up to 100 ng/mL, bucket 3 = 100 ng/mL and over

Study these solved cases before continuing.
[[record]]
chemical_structure = "Cc1ccccc1CNC(=O)c1cncc(N2C[C@H]3CNC[C@H]3C2)n1"
label_value = "bucket 3"

[[record]]
chemical_structure = "C[C@@H](NC(=O)c1cncc(N2C[C@H]3CNC[C@H]3C2)c1)c1ccccc1"
label_value = "bucket 3"

[[record]]
chemical_structure = "O=C(NCc1ccccc1)c1cncc(N2C[C@H]3CNC[C@H]3C2)n1"
label_value = "bucket 2"


Given c1ccc(COc2cncc(N3C[C@H]4CNC[C@H]4C3)n2)cc1 , name the class its concentration at 0.75 h places it in.
bucket 1

Also need O=C(NCc1ccccc1C(F)(F)F)c1cncc(N2C[C@H]3CNC[C@H]3C2)c1 , thanks.
bucket 3

Also need Cc1cccc(NC(=O)c2cncc(N3C[C@H]4CNC[C@H]4C3)c2)c1 , thanks.
bucket 1

Also need CN(Cc1ccccc1)C(=O)c1cncc(N2C[C@H]3CNC[C@H]3C2)c1 , thanks.
bucket 2

Also need COc1cc(NC(=O)c2cncc(N3C[C@H]4CNC[C@H]4C3)c2)cc(OC)c1 , thanks.
bucket 2

Also need Cc1ccccc1CNC(=O)c1cncc(N2C[C@H]3CNC[C@H]3C2)c1 , thanks.
bucket 3

* * *

tested-target: Neuronal acetylcholine receptor; alpha4/beta2 (Rattus norvegicus, UniProt P09483+P12390)
method-summary: Displacement of [3H]cytisine from nAChR alpha4beta2 in rat brain membrane
Assay type: cell membranes
conditions-used: read-out: Ki
Hi! Just check whether Ki is below 3 nM. Below gives YES, equal or above gives NO.

Study these solved cases before continuing.
[[record]]
molecule = "CN(Cc1ccccc1)C(=O)c1cncc(N2C[C@H]3CNC[C@H]3C2)c1"
label_value = "NO"

[[record]]
molecule = "Cc1cccc(NC(=O)c2cncc(N3C[C@@H]4CCN[C@@H]4C3)n2)c1"
label_value = "NO"

[[record]]
molecule = "O=C(NC1CCc2ccccc21)c1cncc(N2C[C@H]3CNC[C@H]3C2)c1 (some centres not stated)"
label_value = "NO"

[[record]]
molecule = "Cc1cc(C)cc(NC(=O)c2cncc(N3C[C@H]4CNC[C@H]4C3)n2)c1"
label_value = "NO"

[[record]]
molecule = "Cc1ccccc1CNC(=O)c1cncc(N2CC[C@@H]3CNC[C@@H]32)n1"
label_value = "NO"


Now look at this entry.
State whether 3 nM exceeds Ki recorded for Cc1ccccc1CNC(=O)c1cncc(N2C[C@@H]3CCN[C@@H]3C2)n1 .
NO

* * *

method-summary: Oral bioavailability in rat at 2 umol/kg
Assay type: ADME, organism-based
conditions-used: in vivo
readout-kind: bioavailability (%)
Kindly answer with a numeric value in %, unit omitted.

May I ask what bioavailability has been recorded for Cc1ccccc1CNC(=O)c1cncc(N2C[C@H]3CNC[C@H]3C2)n1 ?
35

* * *

tested-target: Neuronal acetylcholine receptor; alpha4/beta2 (Rattus norvegicus, UniProt P09483+P12390)
method-summary: Displacement of [3H]cytisine from nAChR alpha4beta2 in rat brain membrane
Assay type: cell membranes
conditions-used: read-out: Ki
readout-kind: log10 Ki (log10 of the value in nM)
Scale: decimal log of Ki, Ki in nM.

Solved entries (count: 4):
[[record]]
chemical_structure = "O=C(Nc1cccc(I)c1)c1cncc(N2C[C@H]3CNC[C@H]3C2)n1"
tested_target = "Neuronal acetylcholine receptor; alpha4/beta2 (Rattus norvegicus, UniProt P09483+P12390)"
value_observed = 0.52

[[record]]
chemical_structure = "C[C@H](NC(=O)c1cncc(N2C[C@H]3CNC[C@H]3C2)c1)c1ccccc1"
tested_target = "Neuronal acetylcholine receptor; alpha4/beta2 (Rattus norvegicus, UniProt P09483+P12390)"
value_observed = 1.59

[[record]]
chemical_structure = "CC(C)Oc1cccc(NC(=O)c2cncc(N3C[C@H]4CNC[C@H]4C3)n2)c1"
tested_target = "Neuronal acetylcholine receptor; alpha4/beta2 (Rattus norvegicus, UniProt P09483+P12390)"
value_observed = 1.41

[[record]]
chemical_structure = "O=C(Nc1cccc(Cl)c1)c1cncc(N2C[C@H]3CNC[C@H]3C2)n1"
tested_target = "Neuronal acetylcholine receptor; alpha4/beta2 (Rattus norvegicus, UniProt P09483+P12390)"
value_observed = -0.15


// fetch Neuronal acetylcholine receptor; alpha4/beta2 (Rattus norvegicus, UniProt P09483+P12390) log10 Ki for O=C(Nc1cccc(I)c1)c1cncc(N2C[C@H]3CNC[C@H]3C2)c1
-1.70

* * *

tested-target: Neuronal acetylcholine receptor; alpha4/beta2 (Rattus norvegicus, UniProt P09483+P12390)
method-summary: Displacement of [3H]cytisine from nAChR alpha4beta2 in rat brain membrane
Format: cell membranes
conditions-used: read-out: Ki
readout-kind: pKi
Please keep in mind that pKi is minus log10 of the molar concentration; only the number is needed.

Solved entries (count: 5):
[[record]]
chemical_structure = "O=C(c1cncc(N2C[C@H]3CNC[C@H]3C2)c1)N1CCc2ccccc2C1"
tested_target = "Neuronal acetylcholine receptor; alpha4/beta2 (Rattus norvegicus, UniProt P09483+P12390)"
value_observed = 9.52

[[record]]
chemical_structure = "Cc1cccc(NC(=O)c2cncc(N3C[C@H]4CNC[C@H]4C3)n2)c1"
tested_target = "Neuronal acetylcholine receptor; alpha4/beta2 (Rattus norvegicus, UniProt P09483+P12390)"
value_observed = 8.12

[[record]]
chemical_structure = "c1cncc(N2C[C@H]3CNC[C@H]3C2)c1"
tested_target = "Neuronal acetylcholine receptor; alpha4/beta2 (Rattus norvegicus, UniProt P09483+P12390)"
value_observed = 9.89

[[record]]
chemical_structure = "Cc1cc(C)cc(NC(=O)c2cncc(N3C[C@H]4CNC[C@H]4C3)c2)c1"
tested_target = "Neuronal acetylcholine receptor; alpha4/beta2 (Rattus norvegicus, UniProt P09483+P12390)"
value_observed = 9.52

[[record]]
chemical_structure = "O=C(NCCc1ccccc1F)c1cncc(N2C[C@H]3CNC[C@H]3C2)c1"
tested_target = "Neuronal acetylcholine receptor; alpha4/beta2 (Rattus norvegicus, UniProt P09483+P12390)"
value_observed = 9.10


// fetch Neuronal acetylcholine receptor; alpha4/beta2 (Rattus norvegicus, UniProt P09483+P12390) pKi for O=C(Nc1cc(F)cc(F)c1)c1cncc(N2C[C@H]3CNC[C@H]3C2)n1
7.85
